Origin of values: patent US20090202980A1

Target: T1, human factor XII (Hageman factor) (human, UniProt P00748 20-615)
T1 construct: also called FXII; fXII
T1 sequence (looked up): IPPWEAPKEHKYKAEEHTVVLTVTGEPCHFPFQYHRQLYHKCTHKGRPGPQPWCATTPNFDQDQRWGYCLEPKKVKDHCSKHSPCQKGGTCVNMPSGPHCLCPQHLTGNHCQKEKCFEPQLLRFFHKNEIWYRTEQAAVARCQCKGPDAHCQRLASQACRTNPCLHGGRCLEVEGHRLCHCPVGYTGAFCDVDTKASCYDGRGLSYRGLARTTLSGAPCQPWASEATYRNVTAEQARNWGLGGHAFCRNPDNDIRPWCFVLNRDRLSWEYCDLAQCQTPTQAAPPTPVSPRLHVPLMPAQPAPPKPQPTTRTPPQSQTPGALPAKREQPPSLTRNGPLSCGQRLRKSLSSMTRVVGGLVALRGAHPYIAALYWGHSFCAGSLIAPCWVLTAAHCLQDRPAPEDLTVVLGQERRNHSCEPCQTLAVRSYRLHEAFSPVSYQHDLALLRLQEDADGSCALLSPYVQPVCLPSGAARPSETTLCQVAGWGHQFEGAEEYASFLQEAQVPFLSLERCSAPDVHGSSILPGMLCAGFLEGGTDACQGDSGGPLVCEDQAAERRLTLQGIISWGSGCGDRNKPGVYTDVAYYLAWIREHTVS
Assay: ELISA, coated ligand, FXII concentration series, 10 mM εACA
pKd: −log10 of the molar value.
ENDPOINT_NAME: pKd

Inquiry: GET /values?readout=pKd&item= KRLEVDIDIKIRS (also called fibrin fragment α147-159 FP13) [fibrin peptide 85 (FP13), human fibrin α-chain fragment α148-160]
Reply text: ~7.96
